Molecular target: T1, FAK KFL 776-841 (Homo sapiens, UniProt Q05397)
T1 chain: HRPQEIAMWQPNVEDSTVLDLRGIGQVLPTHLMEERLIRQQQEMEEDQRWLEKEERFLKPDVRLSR
Test: MST (self-association)
measured_metric: pKd
Would you please state pKd, meaning minus log10 of the concentration in mol/L, as a bare number?

For FAK KFL 776-841 (protein, not fully specified) HRPQEIAMWQPNVEDSTVLDLRGIGQVLPTHLMEERLIRQQQEMEEDQRWLEKEERFLKPDVRLSR , write its pKd. 6.07
